Tested on: cisplatin-resistant ovarian cancer cell line A2780cis
EXPERIMENTAL_PROTOCOL: Caspase-3/7 activity assay (apoptotic cell death), compound alone or with cisplatin
Type: cell-based, human
TEST_CONTEXT: Table 3; compound 20 μM with 20 μM of cisplatin; 20 h
caspase-3/7 activity (Lum), compound with cisplatin under 20 Lum gets true (1), anything at or over 20 Lum gets false (0).

| COMPOUND | GROUP |
| --- | --- |
| O=C(NC(=S)Nc1ccccc1F)c1ccco1 [Compound 2-21] | false (0) |
| CCCN1C(=O)C(=C(C)NC2CCC(C)CC2)C(=O)NC1=S (stereo not drawn) [Compound 2-27] | true (1) |
| CC(C)(C)C(=O)NC(=S)Nc1sc2c(c1C(N)=O)CCCC2 [Compound 2-20] | true (1) |
| O=C(NC(=S)NCCN1CCOCC1)c1ccc(Cl)cc1 [Compound 2-18] | true (1) |
| O=C(CNC(=S)NC(=O)c1ccco1)c1ccccc1 [Compound 2-12] | true (1) |
| COc1cc(-n2c(=S)[nH]c3ccccc3c2=O)c(Cl)cc1Cl [mdivi-1, reference compound] | false (0) |
